koff for assorted binders
Biological target: T1, hGCGR-hFc (human)
T1 construct: also called REGN316
T1 sequence (chain, as listed by the source limits assumed): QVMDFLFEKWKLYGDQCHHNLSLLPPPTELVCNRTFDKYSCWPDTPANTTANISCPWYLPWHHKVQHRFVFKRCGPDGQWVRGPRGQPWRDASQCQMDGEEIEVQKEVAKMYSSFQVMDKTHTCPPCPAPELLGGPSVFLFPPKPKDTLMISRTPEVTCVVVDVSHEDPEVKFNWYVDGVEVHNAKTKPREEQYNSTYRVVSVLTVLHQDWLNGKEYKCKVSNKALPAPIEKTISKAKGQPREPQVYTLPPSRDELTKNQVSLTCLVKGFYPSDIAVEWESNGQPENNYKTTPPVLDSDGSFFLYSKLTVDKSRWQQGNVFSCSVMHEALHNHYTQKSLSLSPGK
Assay: SPR Biacore T100, 37C, mAb captured, antigen flowed
Numeric only. Scale: s⁻¹

Consider the following illustrative entries.
binder	koff [s⁻¹]
H4H1327P (antibody, V domains shown, also called anti-GCGR (hIgG4) antibody designated H4H1327P) VH: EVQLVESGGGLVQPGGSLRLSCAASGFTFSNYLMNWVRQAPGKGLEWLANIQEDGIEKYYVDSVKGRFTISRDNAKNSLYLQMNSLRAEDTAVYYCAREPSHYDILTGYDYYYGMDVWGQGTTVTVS VL: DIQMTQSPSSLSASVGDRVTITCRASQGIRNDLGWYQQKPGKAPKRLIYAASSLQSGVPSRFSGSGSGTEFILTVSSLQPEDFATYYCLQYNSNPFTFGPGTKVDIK	0.000232
H4H1321P (antibody, V domains shown, Fully human anti-GCGR antibody; the controls are called isotype-matched hIgG4) VH: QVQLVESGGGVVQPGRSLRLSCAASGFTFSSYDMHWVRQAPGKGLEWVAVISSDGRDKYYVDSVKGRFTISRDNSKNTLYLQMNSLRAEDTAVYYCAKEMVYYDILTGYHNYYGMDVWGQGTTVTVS VL: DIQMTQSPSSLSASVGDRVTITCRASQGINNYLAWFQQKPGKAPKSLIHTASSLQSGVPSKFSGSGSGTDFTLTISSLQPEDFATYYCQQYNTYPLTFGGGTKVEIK	0.000109

Now examine the next entry.
Incoming: Value lookup for koff; key = H4H1331P (antibody, V domains shown, Fully human anti-GCGR antibody; the controls are called isotype-matched hIgG4) VH: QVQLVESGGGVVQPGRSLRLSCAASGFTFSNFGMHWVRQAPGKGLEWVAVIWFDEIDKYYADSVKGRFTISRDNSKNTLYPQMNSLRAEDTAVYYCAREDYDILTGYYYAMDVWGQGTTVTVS VL: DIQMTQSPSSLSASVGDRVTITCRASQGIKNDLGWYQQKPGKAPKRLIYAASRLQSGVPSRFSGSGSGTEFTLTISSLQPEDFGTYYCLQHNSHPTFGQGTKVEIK
Outgoing: 9.12e-05
